tested on: Alternaria brassicae; experiment: In vivo preventive test on Alternaria brassicae (leaf spot on radish), Examples A and R1; conditions: Alternaria brassicae, 144 h, Example R1, rate of application 100 ppm, read-out: Efficacy in %

compound: N#Cc1cncn1CC(O)(Cc1ccccc1F)C1(Cl)CC1 (stereo not shown)
pest or weed control at 100 ppm: 58%
--
compound: OC(Cc1ccccc1Cl)(Cn1cncc1Br)C1(Cl)CC1 (stereo not shown)
pest or weed control at 100 ppm: 20%
--
compound: Cc1cncn1CC(O)(Cc1ccccc1Cl)C1(Cl)CC1 (stereo not shown)
pest or weed control at 100 ppm: 0%
--
compound: N#Cc1cn(CC(O)(Cc2ccccc2F)C2(Cl)CC2)cn1 (stereo not shown) [drawing 68, reference compound]
pest or weed control at 100 ppm: 0%
--
compound: OC(Cc1ccccc1F)(Cn1cnc(Cl)c1)C1(Cl)CC1 (stereo not shown) [drawing 63, reference compound]
pest or weed control at 100 ppm: 0%
--
compound: OC(Cc1ccccc1F)(Cn1cncc1Cl)C1(Cl)CC1 (stereo not shown)
pest or weed control at 100 ppm: 50%
--
compound: OC(Cc1ccccc1F)(Cn1ccnc1Cl)C1(Cl)CC1 (stereo not shown) [drawing 64, reference compound]
pest or weed control at 100 ppm: 0%
--
compound: OC(Cc1ccccc1Cl)(Cn1cnc(Br)c1)C1(Cl)CC1 (stereo not shown) [drawing 59, reference compound]
pest or weed control at 100 ppm: 0%
--
compound: OC(Cc1ccc(Cl)cc1F)(Cn1cncc1Cl)C1(Cl)CC1 (stereo not shown)
pest or weed control at 100 ppm: 50%
--
compound: Cc1cn(CC(O)(Cc2ccccc2Cl)C2(Cl)CC2)cn1 (stereo not shown) [drawing 61, reference compound]
pest or weed control at 100 ppm: 0%

Data origin, for the record: patent US10231453B2
